test: Selectivity index, ratio of GI50 for cytotoxicity against human HL60 cells to GI50 for Trypanocidal activity against bloodstream form of Trypanosoma brucei 427-221a; assay type: toxicity, cell-based; conditions: read-out: RatioGI50
observation type: selectivity ratio

INSERT INTO assay_data (molecule, recorded_number) VALUES
  ('CCCNC(=O)N[C@H]1C=C[C@]2(O[C@H]([C@@H](CC)C(=O)[C@@H](C)[C@@H](O)[C@H](C)[C@@H]3O[C@@H]([C@@H](CC)C(=O)O)CC[C@@H]3C)[C@@H](C)C[C@H]2C)O[C@@]12CC[C@@](C)([C@H]1CC[C@](O)(CC)[C@H](C)O1)O2', 12.7),
  ('CC[C@@H](C(=O)[C@@H](C)[C@@H](O)[C@H](C)[C@@H]1O[C@@H]([C@@H](CC)C(=O)O)CC[C@@H]1C)[C@H]1O[C@]2(C=C[C@H](N)[C@]3(CC[C@@](C)([C@H]4CC[C@](O)(CC)[C@H](C)O4)O3)O2)[C@H](C)C[C@@H]1C', 25.2),
  ('CC[n+]1c(-c2ccccc2)c2cc(N)ccc2c2ccc(N)cc21 [HOMIDIUM BROMIDE]', 73.6),
  ('CC[C@@H](C(=O)[C@@H](C)[C@@H](O)[C@H](C)[C@@H]1O[C@@H]([C@@H](CC)C(=O)O)CC[C@@H]1C)[C@H]1O[C@]2(C=C[C@H](NC(=O)NCc3ccccc3)[C@]3(CC[C@@](C)([C@H]4CC[C@](O)(CC)[C@H](C)O4)O3)O2)[C@H](C)C[C@@H]1C', 11.1),
  ('CC[C@@H](C(=O)[C@@H](C)[C@@H](O)[C@H](C)[C@@H]1O[C@@H]([C@@H](CC)C(=O)O)CC[C@@H]1C)[C@H]1O[C@]2(C=C[C@H](NC(=O)NCCCCl)[C@]3(CC[C@@](C)([C@H]4CC[C@](O)(CC)[C@H](C)O4)O3)O2)[C@H](C)C[C@@H]1C', 7.9),
  ('CC[C@@H](C(=O)[C@@H](C)[C@@H](O)[C@H](C)[C@@H]1O[C@@H]([C@@H](CC)C(=O)O)CC[C@@H]1C)[C@H]1O[C@]2(C=C[C@H](NC(=O)Nc3ccccc3)[C@]3(CC[C@@](C)([C@H]4CC[C@](O)(CC)[C@H](C)O4)O3)O2)[C@H](C)C[C@@H]1C', 15.5),
  ('CC[C@@H](C(=O)[C@@H](C)[C@@H](O)[C@H](C)[C@@H]1O[C@@H]([C@@H](CC)C(=O)O)CC[C@@H]1C)[C@H]1O[C@]2(C=C[C@H](NC(=O)NCCCl)[C@]3(CC[C@@](C)([C@H]4CC[C@](O)(CC)[C@H](C)O4)O3)O2)[C@H](C)C[C@@H]1C', 12),
  ('CCNC(=O)N[C@H]1C=C[C@]2(O[C@H]([C@@H](CC)C(=O)[C@@H](C)[C@@H](O)[C@H](C)[C@@H]3O[C@@H]([C@@H](CC)C(=O)O)CC[C@@H]3C)[C@@H](C)C[C@H]2C)O[C@@]12CC[C@@](C)([C@H]1CC[C@](O)(CC)[C@H](C)O1)O2', 13.1),
  ('CCCCCCCCNC(=O)N[C@H]1C=C[C@]2(O[C@H]([C@@H](CC)C(=O)[C@@H](C)[C@@H](O)[C@H](C)[C@@H]3O[C@@H]([C@@H](CC)C(=O)O)CC[C@@H]3C)[C@@H](C)C[C@H]2C)O[C@@]12CC[C@@](C)([C@H]1CC[C@](O)(CC)[C@H](C)O1)O2', 23.3),
  ('C=CCNC(=S)N[C@H]1C=C[C@]2(O[C@H]([C@@H](CC)C(=O)[C@@H](C)[C@@H](O)[C@H](C)[C@@H]3O[C@@H]([C@@H](CC)C(=O)O)CC[C@@H]3C)[C@@H](C)C[C@H]2C)O[C@@]12CC[C@@](C)([C@H]1CC[C@](O)(CC)[C@H](C)O1)O2', 48.7),
  ('CC[C@@H](C(=O)[C@@H](C)[C@@H](O)[C@H](C)[C@@H]1O[C@@H]([C@@H](CC)C(=O)O)CC[C@@H]1C)[C@H]1O[C@]2(C=C[C@H](NC(=S)Nc3ccccc3)[C@]3(CC[C@@](C)([C@H]4CC[C@](O)(CC)[C@H](C)O4)O3)O2)[C@H](C)C[C@@H]1C', 40.5);

* * *

test: Cytotoxicity against human HL-60 cells assessed as inhibition of cell growth incubated for 24 hrs and measured at 48 hrs following resazurin challenge by resazurin assay; type: toxicity, cell-based
observation type: GI50 at 72 h (µM)

INSERT INTO assay_data (compound, observation_type, relation_sign, recorded_number) VALUES
  ('CCNC(=S)N[C@H]1C=C[C@]2(O[C@H]([C@@H](CC)C(=O)[C@@H](C)[C@@H](O)[C@H](C)[C@@H]3O[C@@H]([C@@H](CC)C(=O)O)CC[C@@H]3C)[C@@H](C)C[C@H]2C)O[C@@]12CC[C@@](C)([C@H]1CC[C@](O)(CC)[C@H](C)O1)O2', 'GI50 at 72 h', '=', 18.5),
  ('Cc1ccc(C(=O)Nc2ccc(S(=O)(=O)O)c3cc(S(=O)(=O)O)cc(S(=O)(=O)O)c23)cc1NC(=O)c1cccc(NC(=O)Nc2cccc(C(=O)Nc3cc(C(=O)Nc4ccc(S(=O)(=O)O)c5cc(S(=O)(=O)O)cc(S(=O)(=O)O)c45)ccc3C)c2)c1', 'GI50 at 72 h', '>', 100),
  ('CC[n+]1c(-c2ccccc2)c2cc(N)ccc2c2ccc(N)cc21 [HOMIDIUM BROMIDE]', 'GI50 at 72 h', '=', 6.4),
  ('CCCCNC(=O)N[C@H]1C=C[C@]2(O[C@H]([C@@H](CC)C(=O)[C@@H](C)[C@@H](O)[C@H](C)[C@@H]3O[C@@H]([C@@H](CC)C(=O)O)CC[C@@H]3C)[C@@H](C)C[C@H]2C)O[C@@]12CC[C@@](C)([C@H]1CC[C@](O)(CC)[C@H](C)O1)O2', 'GI50 at 72 h', '=', 19.8),
  ('C=CCNC(=O)N[C@H]1C=C[C@]2(O[C@H]([C@@H](CC)C(=O)[C@@H](C)[C@@H](O)[C@H](C)[C@@H]3O[C@@H]([C@@H](CC)C(=O)O)CC[C@@H]3C)[C@@H](C)C[C@H]2C)O[C@@]12CC[C@@](C)([C@H]1CC[C@](O)(CC)[C@H](C)O1)O2', 'GI50 at 72 h', '=', 38.3),
  ('CC[C@@H](C(=O)[C@@H](C)[C@@H](O)[C@H](C)[C@@H]1O[C@@H]([C@@H](CC)C(=O)O)CC[C@@H]1C)[C@H]1O[C@]2(C=C[C@H](NC(=O)Nc3ccccc3)[C@]3(CC[C@@](C)([C@H]4CC[C@](O)(CC)[C@H](C)O4)O3)O2)[C@H](C)C[C@@H]1C', 'GI50 at 72 h', '=', 44.9),
  ('CCCNC(=O)N[C@H]1C=C[C@]2(O[C@H]([C@@H](CC)C(=O)[C@@H](C)[C@@H](O)[C@H](C)[C@@H]3O[C@@H]([C@@H](CC)C(=O)O)CC[C@@H]3C)[C@@H](C)C[C@H]2C)O[C@@]12CC[C@@](C)([C@H]1CC[C@](O)(CC)[C@H](C)O1)O2', 'GI50 at 72 h', '=', 36.7),
  ('CCCCNC(=S)N[C@H]1C=C[C@]2(O[C@H]([C@@H](CC)C(=O)[C@@H](C)[C@@H](O)[C@H](C)[C@@H]3O[C@@H]([C@@H](CC)C(=O)O)CC[C@@H]3C)[C@@H](C)C[C@H]2C)O[C@@]12CC[C@@](C)([C@H]1CC[C@](O)(CC)[C@H](C)O1)O2', 'GI50 at 72 h', '=', 8.4),
  ('CCCCCCCCNC(=O)N[C@H]1C=C[C@]2(O[C@H]([C@@H](CC)C(=O)[C@@H](C)[C@@H](O)[C@H](C)[C@@H]3O[C@@H]([C@@H](CC)C(=O)O)CC[C@@H]3C)[C@@H](C)C[C@H]2C)O[C@@]12CC[C@@](C)([C@H]1CC[C@](O)(CC)[C@H](C)O1)O2', 'GI50 at 72 h', '=', 6.3),
  ('CCNC(=O)N[C@H]1C=C[C@]2(O[C@H]([C@@H](CC)C(=O)[C@@H](C)[C@@H](O)[C@H](C)[C@@H]3O[C@@H]([C@@H](CC)C(=O)O)CC[C@@H]3C)[C@@H](C)C[C@H]2C)O[C@@]12CC[C@@](C)([C@H]1CC[C@](O)(CC)[C@H](C)O1)O2', 'GI50 at 72 h', '=', 42),
  ('CC[C@@H](C(=O)[C@@H](C)[C@@H](O)[C@H](C)[C@@H]1O[C@@H]([C@@H](CC)C(=O)O)CC[C@@H]1C)[C@H]1O[C@]2(C=C[C@H](NC(=O)Nc3cccc4ccccc34)[C@]3(CC[C@@](C)([C@H]4CC[C@](O)(CC)[C@H](C)O4)O3)O2)[C@H](C)C[C@@H]1C', 'GI50 at 72 h', '=', 13.5),
  ('CC[C@@H](C(=O)[C@@H](C)[C@@H](O)[C@H](C)[C@@H]1O[C@@H]([C@@H](CC)C(=O)O)CC[C@@H]1C)[C@H]1O[C@]2(C=C[C@H](NC(=O)NCCCCl)[C@]3(CC[C@@](C)([C@H]4CC[C@](O)(CC)[C@H](C)O4)O3)O2)[C@H](C)C[C@@H]1C', 'GI50 at 72 h', '=', 18.1),
  ('CC[C@@H](C(=O)[C@@H](C)[C@@H](O)[C@H](C)[C@@H]1O[C@@H]([C@@H](CC)C(=O)O)CC[C@@H]1C)[C@H]1O[C@]2(C=C[C@@H](O)[C@]3(CC[C@@](C)([C@H]4CC[C@](O)(CC)[C@H](C)O4)O3)O2)[C@H](C)C[C@@H]1C', 'GI50 at 72 h', '=', 20),
  ('C=CCNC(=S)N[C@H]1C=C[C@]2(O[C@H]([C@@H](CC)C(=O)[C@@H](C)[C@@H](O)[C@H](C)[C@@H]3O[C@@H]([C@@H](CC)C(=O)O)CC[C@@H]3C)[C@@H](C)C[C@H]2C)O[C@@]12CC[C@@](C)([C@H]1CC[C@](O)(CC)[C@H](C)O1)O2', 'GI50 at 72 h', '=', 15.1);
